biological target: URAT-1 transporter (Homo sapiens (Human), UniProt Q96S37); assay: URAT-1 inhibitor activity: [14C]-uric acid uptake in CHO-URAT1(L)GFP#8 (CHO#8) cells, scintillation proximity; type: cell-based; details: inhibition of [14C]-uric acid (30 nM) uptake into CHO#8 cells; compound 0 to 10 μM; 4 parameter logistic fit
Sequence (Q96S37 other isoform, or with tags, fused parts or gaps): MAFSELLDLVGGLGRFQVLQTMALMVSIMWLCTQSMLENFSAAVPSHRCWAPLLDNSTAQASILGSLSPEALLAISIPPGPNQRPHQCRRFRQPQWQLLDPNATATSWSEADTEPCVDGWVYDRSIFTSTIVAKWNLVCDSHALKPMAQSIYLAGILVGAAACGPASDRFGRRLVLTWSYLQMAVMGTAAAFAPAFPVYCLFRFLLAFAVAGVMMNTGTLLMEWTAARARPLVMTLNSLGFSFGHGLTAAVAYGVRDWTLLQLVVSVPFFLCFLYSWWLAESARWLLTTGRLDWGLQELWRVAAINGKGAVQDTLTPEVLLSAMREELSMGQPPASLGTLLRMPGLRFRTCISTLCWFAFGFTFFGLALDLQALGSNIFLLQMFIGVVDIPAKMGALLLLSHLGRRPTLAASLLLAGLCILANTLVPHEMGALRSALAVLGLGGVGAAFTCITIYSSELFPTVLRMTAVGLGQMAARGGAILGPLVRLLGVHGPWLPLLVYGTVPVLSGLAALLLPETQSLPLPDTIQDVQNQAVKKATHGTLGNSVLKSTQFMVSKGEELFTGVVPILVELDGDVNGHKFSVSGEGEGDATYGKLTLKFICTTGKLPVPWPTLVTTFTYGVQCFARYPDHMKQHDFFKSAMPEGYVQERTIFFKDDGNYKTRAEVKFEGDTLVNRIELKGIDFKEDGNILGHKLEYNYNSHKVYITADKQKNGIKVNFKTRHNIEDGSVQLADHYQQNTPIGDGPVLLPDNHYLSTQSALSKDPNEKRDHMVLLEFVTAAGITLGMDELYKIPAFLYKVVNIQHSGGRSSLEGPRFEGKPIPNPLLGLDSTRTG
attribute_measured: IC50 (nM)

- compound: "N#Cc1ccc(Oc2ccc(S(=O)(=O)Nc3cc(F)ccn3)cc2C#N)cc1Cl"
  attribute_measured: "IC50"
  endpoint_value: 15
- compound: "Cc1cc(Oc2ccc(S(=O)(=O)Nc3ccc(F)cn3)cc2C#N)cc(C)c1C#N [compound 235]"
  attribute_measured: "IC50"
  endpoint_value: 13

(I) N#Cc1ccc(Oc2ccc(S(=O)(=O)Nc3ncccc3F)cc2C#N)cc1Cl
(II) N#Cc1ccc(Oc2ccc(S(=O)(=O)Nc3ncc(F)cn3)cc2C#N)cc1Cl
Exam item: Which entry shows the lesser value of IC50 here, I or II ? Reply with the label of the item you choose.
Marked response: I

###

target: UniProt:Q96S37; test: URAT-1 inhibitor activity: [14C]-uric acid uptake in CHO-URAT1(L)GFP#8 (CHO#8) cells, scintillation proximity; format: cell-based; details: inhibition of [14C]-uric acid (30 nM) uptake into CHO#8 cells; compound 0 to 10 μM; 4 parameter logistic fit
attribute_measured: IC50 (µM)

Completed entries (count: 3):
- compound: "COc1ccc(Oc2ccc(S(=O)(=O)Nc3ccc(F)cn3)cc2C#N)c(Cl)c1 [Example 168]"
  IC50 [µM]: 0.612
- compound: "Cc1cc(Oc2ccc(S(=O)(=O)Nc3ccc(F)cn3)cc2C#N)c(Cl)cc1Cl [Example 109]"
  IC50 [µM]: 0.892
- compound: "Cc1cc(Oc2ccc(S(=O)(=O)Nc3ccc(F)cn3)cc2C#N)ccc1C#N [Example 61]"
  IC50 [µM]: 0.039

(1) N#Cc1ccc(Oc2ccc(S(=O)(=O)Nc3ccc(F)cn3)cc2C#N)c(OC(F)F)c1 [Example 67]
(2) Cc1ccc(Oc2ccc(S(=O)(=O)Nc3ccc(F)cn3)cc2C#N)c(C)c1Cl [Example 175]
(3) N#Cc1cc(S(=O)(=O)Nc2ccc(F)cn2)ccc1Oc1ccc(Cl)cc1 [Example 20]
Exam item: Ordering: ascending IC50. Submit the labels in the order that the ranking request calls for.
Marked response: 3, 2, 1
(3: 0.088 µM, 2: 0.455 µM, 1: 3.52 µM)

###

target: URAT-1 transporter (Homo sapiens (Human), UniProt Q96S37); test: URAT-1 inhibitor activity: [14C]-uric acid uptake in CHO-URAT1(L)GFP#8 (CHO#8) cells, scintillation proximity; type: cell-based; conditions: inhibition of [14C]-uric acid (30 nM) uptake into CHO#8 cells; compound 0 to 10 μM; 4 parameter logistic fit
attribute_measured: IC50 (nM)

- structure: "N#Cc1cccc(Oc2ccc(S(=O)(=O)Nc3ccc(F)cn3)cc2C#N)c1"
  IC50 [nM]: 206

(P) N#Cc1cc(S(=O)(=O)Nc2ccc(F)cn2)ccc1Oc1cc(F)cc(Cl)c1
(Q) N#Cc1cc(S(=O)(=O)Nc2ccc(F)cn2)ccc1Oc1ccc(C#N)c(C(F)(F)F)c1
(R) COc1cc(Oc2ccc(S(=O)(=O)Nc3ccc(F)cn3)cc2C#N)ccc1C#N
Exam item: Sort low-to-high on IC50, please. Submit the labels in the order that the ranking request calls for.
Marked response: R, P, Q
(R: 57 nM, P: 92 nM, Q: 267 nM)

###

target: URAT-1 transporter (Homo sapiens (Human)); assay: URAT-1 inhibitor activity: [14C]-uric acid uptake in CHO-URAT1(L)GFP#8 (CHO#8) cells, scintillation proximity; assay type: cell-based
attribute_measured: IC50 (nM)
Give your result in nM as a bare value.

Kindly note: URAT-1 transporter (Homo sapiens (Human)), [2H]c1c(Oc2ccc(S(=O)(=O)Nc3ccc(F)cn3)c(F)c2)c([2H])c(C([2H])([2H])[2H])c(C#N)c1C([2H])([2H])[2H] [Example 249] , IC50 value reported: 21

###

Measured IC50, listed per entry.
target: UniProt Q96S37; experiment: URAT-1 inhibitor activity: [14C]-uric acid uptake in CHO-URAT1(L)GFP#8 (CHO#8) cells, scintillation proximity; type: cell-based; conditions: inhibition of [14C]-uric acid (30 nM) uptake into CHO#8 cells; compound 0 to 10 μM; 4 parameter logistic fit

- structure: "CCN(CC)c1cccc(Oc2ccc(S(=O)(=O)Nc3ccc(F)cn3)cc2C#N)c1"
  IC50: "> 10 µM"
- structure: "CCc1cccc(Oc2ccc(S(=O)(=O)Nc3ccc(F)cn3)cc2C#N)c1"
  IC50: "> 10 µM"

Query "Cc1ccnc(NS(=O)(=O)c2ccc(Oc3cccc(Cl)c3C#N)cc2)c1" yields IC50 of > 10 µM

"N#Cc1cncc(Oc2ccc(S(=O)(=O)Nc3ccc(F)cn3)cc2C#N)c1" yielded IC50 of 1.08 µM

Record summary for "N#Cc1ccc(Oc2ccc(S(=O)(=O)Nc3ccc(F)cn3)cc2C#N)c(Cl)c1" : reported IC50 = 0.183 µM

Entry "CC(C)Oc1ccccc1Oc1ccc(S(=O)(=O)Nc2ccc(F)cn2)cc1C#N" , IC50 reported as > 10 µM

###

target: URAT-1 transporter (Homo sapiens (Human), UniProt Q96S37); assay: URAT-1 inhibitor activity: [14C]-uric acid uptake in CHO-URAT1(L)GFP#8 (CHO#8) cells, scintillation proximity; type: cell-based; conditions: inhibition of [14C]-uric acid (30 nM) uptake into CHO#8 cells; compound 0 to 10 μM; 4 parameter logistic fit
attribute_measured: IC50 (nM)

- structure: "COc1c(Oc2ccc(S(=O)(=O)Nc3ccc(F)cn3)cc2C#N)ccc(F)c1C"
  measured_on: "URAT-1 transporter (Homo sapiens (Human), UniProt Q96S37)"
  attribute_measured: "IC50"
  endpoint_value: 131

(A) N#Cc1cc(S(=O)(=O)Nc2ccc(F)cn2)ccc1Oc1cc(F)c(F)cc1F
(B) N#Cc1cc(S(=O)(=O)Nc2ccc(F)cn2)ccc1Oc1ccc(F)cc1Cl
(C) N#Cc1cc(S(=O)(=O)Nc2ccc(F)cn2)ccc1Oc1cc(F)c(C#N)c(Cl)c1
(D) Cc1c(F)ccc(Oc2ccc(S(=O)(=O)Nc3ccc(F)cn3)cc2C#N)c1C
Exam item: Sort by IC50, descending. Lab note: record answer as labels in requested order.
Marked response: D, A, B, C

###

target: URAT-1 transporter (Homo sapiens (Human)); test: URAT-1 inhibitor activity: [14C]-uric acid uptake in CHO-URAT1(L)GFP#8 (CHO#8) cells, scintillation proximity; assay type: cell-based; conditions: inhibition of [14C]-uric acid (30 nM) uptake into CHO#8 cells; compound 0 to 10 μM; 4 parameter logistic fit
pIC50: −log10 of the molar value.
attribute_measured: pIC50

- compound: "N#Cc1cc(S(=O)(=O)Nc2ccc(F)cn2)ccc1Oc1cc(Cl)ccc1C#N [Example 65]"
  pIC50: 6.74
- compound: "N#Cc1cc(S(=O)(=O)Nc2ccc(F)cn2)ccc1Oc1ccc(C#N)c(C2CC2)c1 [Example 203]"
  pIC50: 7.43
- compound: "Cc1ccc(Cl)c(C)c1Oc1ccc(S(=O)(=O)Nc2ccc(F)cn2)cc1C#N [Example 169]"
  pIC50: 6.87
- compound: "N#Cc1cc(S(=O)(=O)Nc2ccc(F)cn2)ccc1Oc1ccccc1F [Example 41]"
  pIC50: 6.79

###

biological target: UniProt Q96S37; assay: URAT-1 inhibitor activity: [14C]-uric acid uptake in CHO-URAT1(L)GFP#8 (CHO#8) cells, scintillation proximity; assay type: cell-based; settings: inhibition of [14C]-uric acid (30 nM) uptake into CHO#8 cells; compound 0 to 10 μM; 4 parameter logistic fit
pIC50: −log10 of the molar value.
attribute_measured: pIC50

- compound: "Cc1c(F)ccc(Oc2ccc(S(=O)(=O)Nc3ccc(F)cn3)cc2C#N)c1Cl [Example 147]"
  pIC50: 6.73
- compound: "COc1cccc(C)c1Oc1ccc(S(=O)(=O)Nc2ccc(F)cn2)cc1C#N [Example 115]"
  pIC50: 7.62

(a) COc1c(F)ccc(Oc2ccc(S(=O)(=O)Nc3ccc(F)cn3)cc2C#N)c1C [Example 165]
(b) N#Cc1ccc(Oc2ccc(S(=O)(=O)Nc3ccc(F)cn3)cc2Cl)cc1F [compound 228]
Exam item: Given the two records a and b , choose the one whose pIC50 value is lower. Kindly state the label of the option you pick.
Marked response: b
(b: 6.61, a: 6.86)

###

molecular target: URAT-1 transporter (Homo sapiens (Human), UniProt Q96S37); assay: URAT-1 inhibitor activity: [14C]-uric acid uptake in CHO-URAT1(L)GFP#8 (CHO#8) cells, scintillation proximity; assay type: cell-based; details: inhibition of [14C]-uric acid (30 nM) uptake into CHO#8 cells; compound 0 to 10 μM; 4 parameter logistic fit
attribute_measured: IC50 (nM)

- structure: "N#Cc1cc(S(=O)(=O)Nc2ccc(F)cn2)ccc1Oc1cnc(C2CC2)c(Cl)c1"
  IC50 (nM): 877
- structure: "COc1ccc(Oc2ccc(S(=O)(=O)Nc3ccc(F)cn3)cc2C#N)cc1Cl"
  IC50 (nM): 53
- structure: "COc1cc(C)cc(Oc2ccc(S(=O)(=O)Nc3ccc(F)cn3)cc2C#N)c1"
  IC50 (nM): 175

(a) O=S(=O)(Nc1ccc(F)cn1)c1ccc(Oc2cnc(CO)c(Cl)c2)cc1F
(b) N#Cc1cc(S(=O)(=O)Nc2ccc(F)cn2)ccc1Oc1cnc(C#N)c(Cl)c1
(c) COc1ccc(Oc2ccc(S(=O)(=O)Nc3ccc(F)cn3)cc2C#N)cc1
Exam item: Could you please order the items by IC50, going from the lowest number to the highest? Provide the labels, sequenced as the question asks.
Marked response: a, b, c
